assay.procedure: Mouse pharmacokinetics and renal accumulation (LC/MS)
Type: in vivo
setup.conditions: male, CD1, mouse, in vivo, ip, 300 μg; mice, bolus intraperitoneal administration; read-out: t1/2 for disappearance of the original compound (converted)

| molecule | half-life |
| --- | --- |
| Cn1c(=O)c2c(-c3ccccc3)n3c(c2n(C)c1=O)C(c1ccc(Br)o1)Oc1ccc(C(=O)O)cc1-3 (racemic) | ~2 h |

---

Items are presented alongside their recorded pIC50.
measured.target: human wildtype CFTR (Homo sapiens)
Sequence (P13569 whole entry): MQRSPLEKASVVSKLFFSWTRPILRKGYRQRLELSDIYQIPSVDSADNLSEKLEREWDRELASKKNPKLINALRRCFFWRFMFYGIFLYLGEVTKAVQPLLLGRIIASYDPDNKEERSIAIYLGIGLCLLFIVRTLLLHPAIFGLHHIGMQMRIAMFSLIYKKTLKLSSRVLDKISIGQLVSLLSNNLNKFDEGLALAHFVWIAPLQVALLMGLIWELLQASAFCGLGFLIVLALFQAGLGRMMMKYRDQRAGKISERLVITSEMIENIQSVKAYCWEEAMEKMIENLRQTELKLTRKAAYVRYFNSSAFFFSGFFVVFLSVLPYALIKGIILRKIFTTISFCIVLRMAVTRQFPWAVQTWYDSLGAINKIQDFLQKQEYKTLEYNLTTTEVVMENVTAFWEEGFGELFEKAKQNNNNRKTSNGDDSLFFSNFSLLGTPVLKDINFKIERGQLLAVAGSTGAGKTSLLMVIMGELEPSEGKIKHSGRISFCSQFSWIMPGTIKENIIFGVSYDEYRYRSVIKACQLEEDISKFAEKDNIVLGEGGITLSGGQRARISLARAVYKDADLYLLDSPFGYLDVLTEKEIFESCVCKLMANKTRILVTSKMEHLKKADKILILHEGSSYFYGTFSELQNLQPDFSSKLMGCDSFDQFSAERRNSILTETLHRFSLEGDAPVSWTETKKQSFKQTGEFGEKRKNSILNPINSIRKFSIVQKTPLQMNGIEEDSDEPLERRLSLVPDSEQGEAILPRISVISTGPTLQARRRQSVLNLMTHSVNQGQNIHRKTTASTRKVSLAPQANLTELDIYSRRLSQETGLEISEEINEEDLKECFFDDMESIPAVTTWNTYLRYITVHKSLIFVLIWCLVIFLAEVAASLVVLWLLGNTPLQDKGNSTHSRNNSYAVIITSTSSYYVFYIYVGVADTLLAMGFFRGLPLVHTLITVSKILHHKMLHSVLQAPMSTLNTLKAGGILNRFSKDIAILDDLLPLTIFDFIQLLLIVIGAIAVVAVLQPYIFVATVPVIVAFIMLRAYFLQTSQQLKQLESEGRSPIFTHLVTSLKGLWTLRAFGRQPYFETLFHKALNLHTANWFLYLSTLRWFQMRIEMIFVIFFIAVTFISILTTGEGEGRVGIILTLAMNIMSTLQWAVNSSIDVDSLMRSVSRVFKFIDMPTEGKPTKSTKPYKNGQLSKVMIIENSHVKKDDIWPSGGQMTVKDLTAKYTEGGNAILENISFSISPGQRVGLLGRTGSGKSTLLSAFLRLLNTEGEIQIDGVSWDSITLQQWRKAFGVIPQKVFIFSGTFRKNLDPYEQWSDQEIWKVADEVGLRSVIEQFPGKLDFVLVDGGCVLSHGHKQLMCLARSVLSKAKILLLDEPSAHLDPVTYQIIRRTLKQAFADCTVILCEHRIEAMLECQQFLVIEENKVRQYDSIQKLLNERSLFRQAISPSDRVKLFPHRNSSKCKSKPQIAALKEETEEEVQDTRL
assay.procedure: Fluorescence plate reader assay of CFTR inhibition (iodide influx)
Assay type: cell-based
Design: expressed in transfected cells; host or cells: Fischer rat thyroid (FRT) cells
setup.conditions: Determined by micro-plate reader assay; FRT cells co-expressing human wild type CFTR and YFP-H148Q
pIC50: −log10 of the molar value.
parameter: pIC50

| molecule | measured.value |
| --- | --- |
| Cc1ccc(C2c3c4c(c(-c5ccccc5)n3-c3ccccc3N2C)c(=O)n(C)c(=O)n4C)o1 (centres unmarked) | 6.00 |
| Cn1c(=O)c2c(-c3ccccc3)n3c(c2n(C)c1=O)C(c1ccc(I)o1)Oc1ccccc1-3 (centres unmarked) | 6.30 |
| Cc1cccc(-c2c3c(=O)n(C)c(=O)n(C)c3c3n2-c2ccccc2OC3c2ccc(Cl)o2)c1 (centres unmarked) | 6.43 |
| Cc1ccc(C2Oc3ccccc3-n3c(-c4ccccc4)c4c(=O)n(C)c(=O)n(C)c4c32)o1 (centres unmarked) | 6.82 |
| Cn1c(=O)c2c(-c3ccccc3)n3c(c2n(C)c1=O)C(c1ccc(Br)o1)Oc1ccc([N+](=O)[O-])cc1-3 (centres unmarked) | 6.92 |
| Cc1cccc(-c2c3c(=O)n(C)c(=O)n(C)c3c3n2-c2ccccc2OC3c2ccc(C)o2)c1 (centres unmarked) | 6.22 |
| Cn1c(=O)c2c(-c3ccccc3)n3c(c2n(C)c1=O)C(c1ccc(I)o1)Nc1ccccc1-3 (centres unmarked) | 6.77 |
| Cn1c(=O)c2c(-c3ccccc3)n3c(c2n(C)c1=O)C(c1ccc(Br)o1)Oc1ccccc1-3 (centres unmarked) | 6.70 |
